system: MDA-MB-231; test: NCI tumour cell line growth inhibition, 48 h
Active and inactive are the calls of the source. No stated cut-off is given here; in the data, active = GI50 up to about 1.1 µM and inactive = higher.
Classes used: YES = active, NO = inactive

- COMPOUND: "S=C=NCc1ccccc1 [BENZYL ISOTHIOCYANATE]"
  GROUP_LABEL: "NO"
- COMPOUND: "CCc1cccc(C(C)C)c1NC1=C([n+]2ccc(C)cc2)C(=O)c2ccccc2C1=O.[O-][Cl+3]([O-])([O-])[O-]"
  GROUP_LABEL: "NO"
- COMPOUND: "C=CCNS(=O)(=O)c1ncnc2[nH]cnc12"
  GROUP_LABEL: "NO"
- COMPOUND: "COc1nc(NC2OC(COC(C)=O)C(OC(C)=O)C(OC(C)=O)C2OC(C)=O)c(/N=C/C=N/c2c(NC3OC(COC(C)=O)C(OC(C)=O)C(OC(C)=O)C3OC(C)=O)nc(OC)n(C)c2=O)c(=O)n1C (centres undefined)"
  GROUP_LABEL: "NO"
- COMPOUND: "COc1cc(C2c3cc4c(cc3C(O)C3CCC(=O)N23)OCO4)cc(OC)c1OC (centres undefined)"
  GROUP_LABEL: "NO"
- COMPOUND: "COc1ccc2c(c1)CCN=C2Cc1ccccc1CCCl"
  GROUP_LABEL: "NO"
- COMPOUND: "CC(C)(O)/C=C/C(=O)[C@](C)(O)[C@H]1[C@H](O)C[C@@]2(C)[C@@H]3CC=C4[C@@H](C=C(O)C(=O)C4(C)C)[C@]3(C)C(=O)C[C@]12C"
  GROUP_LABEL: "YES"
- COMPOUND: "CCCCOc1ccc(/C=C/C2=[N+](CCO)CCO2)cc1"
  GROUP_LABEL: "NO"
- COMPOUND: "CN(Cc1cc(Cl)cc(Cl)c1O)Cc1c(O)ccc2ccccc12"
  GROUP_LABEL: "NO"
- COMPOUND: "COc1ccc2nc3ccccc3c(NCCCN(C)CCCl)c2c1"
  GROUP_LABEL: "YES"
- COMPOUND: "CCN(CC)CCCNc1ccc2ncn3c4ccc(O)cc4c(=O)c1c23"
  GROUP_LABEL: "NO"
- COMPOUND: "O=C(c1cccs1)N(C(=O)N1CCCCC1)c1ccccc1"
  GROUP_LABEL: "NO"
- COMPOUND: "C=CC(C)(C)n1cc(C2=C(O)C(=O)C(c3c(CC=C(C)C)[nH]c4ccccc34)=C(O)C2=O)c2ccccc21"
  GROUP_LABEL: "NO"
- COMPOUND: "COc1ccc2c3c1O[C@H](c1ccc(O)cc1)[C@H]3[N+](C)(C)CC2"
  GROUP_LABEL: "NO"
